Overview of recorded Ki for various molecules
# TARGET_DESC: Rhodesain (Trypanosoma brucei rhodesiense)
# Sequence (Q95PM0 whole entry): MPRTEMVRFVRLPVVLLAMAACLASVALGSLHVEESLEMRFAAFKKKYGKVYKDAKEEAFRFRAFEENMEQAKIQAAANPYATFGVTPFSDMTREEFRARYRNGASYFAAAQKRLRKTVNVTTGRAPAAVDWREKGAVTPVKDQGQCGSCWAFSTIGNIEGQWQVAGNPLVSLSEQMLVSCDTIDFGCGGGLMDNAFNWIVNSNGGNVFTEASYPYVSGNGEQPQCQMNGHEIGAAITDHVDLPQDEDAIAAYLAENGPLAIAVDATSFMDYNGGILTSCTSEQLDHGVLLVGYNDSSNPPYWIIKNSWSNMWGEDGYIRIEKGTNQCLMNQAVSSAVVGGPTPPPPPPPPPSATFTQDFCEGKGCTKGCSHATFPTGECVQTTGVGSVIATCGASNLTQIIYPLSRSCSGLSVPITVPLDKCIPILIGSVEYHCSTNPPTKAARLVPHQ
# TEST: Inhibition of Trypanosoma brucei rhodesiense rhodesain
Lab book: enter the figure in nM, no units written.

Below, 5 molecules whose answers are already recorded.
SMILES_REPRESENTATION | REPORTED_METRIC | UNIT_ABBREV | RESULT_VALUE
CCOC(=O)[C@H]1[C@H](C(=O)OCC)N1C(=O)CCCCCNC(=O)CCCC[C@@H]1SC[C@@H]2NC(=O)N[C@@H]21 | Ki | nM | 600
C[C@@H](NC(=O)[C@@H](Cc1ccccc1)NC(=O)OC(C)(C)C)C(=O)N1[C@H](C(=O)O)[C@H]1C(=O)O | Ki | nM | 5000
CCOC(=O)[C@H]1[C@H](C(=O)OCC)N1C(=O)[C@@H]1CCCN(C(=O)[C@H](CC(C)C)NC(=O)OC(C)(C)C)C1 | Ki | nM | 1900
CC(C)(C)OC(=O)NCC(=O)N1CCCC[C@H]1C(=O)N1[C@H](C(=O)OCc2ccccc2)[C@H]1C(=O)OCc1ccccc1 | Ki | nM | 700
C[C@H](NC(=O)[C@H](Cc1ccccc1)NC(=O)OC(C)(C)C)C(=O)N1[C@H](C(=O)O)[C@H]1C(=O)O | Ki | nM | 500

Need Ki of CC(C)C[C@@H](NC(=O)OC(C)(C)C)C(=O)N1CCC[C@H](C(=O)N2[C@H](C(=O)OCc3ccccc3)[C@H]2C(=O)OCc2ccccc2)C1 , thanks.
700

Need Ki of CCOC(=O)[C@H]1[C@H](C(=O)OCC)N1C(=O)[C@H]1CCCN(C(=O)[C@H](CC(C)C)NC(=O)OC(C)(C)C)C1 , thanks.
1900

###

# System: J774
# TEST: Cytotoxicity against J774.1 cell line after 48 hrs
# Format: functional, cell-based
# CONDITION_DESCRIPTION: Mus musculus, J774, 48 h
REPORTED_METRIC: IC50

COMPOUND | REPORTED_METRIC | RESULT_VALUE
C[C@@H](NC(=O)[C@@H](Cc1ccccc1)NC(=O)OC(C)(C)C)C(=O)N1[C@H](C(=O)OCc2ccccc2)[C@H]1C(=O)OCc1ccccc1 | IC50 | > 100 µM
C[C@H](NC(=O)[C@H](Cc1ccccc1)NC(=O)OC(C)(C)C)C(=O)N1[C@H](C(=O)OCc2ccccc2)[C@H]1C(=O)OCc1ccccc1 | IC50 | > 100 µM
CCOC(=O)[C@H]1[C@H](C(=O)OCC)N1C(=O)CCCCCNC(=O)CCCC[C@@H]1SC[C@@H]2NC(=O)N[C@@H]21 | IC50 | > 100 µM
CC(C)C[C@H](NC(=O)OC(C)(C)C)C(=O)N1CC[C@H]1C(=O)N1[C@H](C(=O)OCc2ccccc2)[C@H]1C(=O)OCc1ccccc1 | IC50 | 37.2 µM
Nc1nc(N)nc(Nc2ccc([As]3SCC(CO)S3)cc2)n1 (configuration not stated) | IC50 | 4.3 µM
CC(C)C[C@H](NC(=O)OC(C)(C)C)C(=O)N1CCC[C@H]1C(=O)N1[C@@H](C(=O)OCc2ccccc2)[C@@H]1C(=O)OCc1ccccc1 | IC50 | > 125 µM

Need IC50 of CCOC(=O)[C@@H]1[C@@H](C(=O)OCC)N1C(=O)[C@@H]1CCCN(C(=O)[C@H](CC(C)C)NC(=O)OC(C)(C)C)C1 , thanks.
> 100 µM

Each recorded value in this set is attributed to ChEMBL document CHEMBL1147010.
